test: Biodistribution of DHA after periorbital skin administration (Example 4); type: in vivo, cynomolgus monkeys; conditions: cynomolgus monkey, left vitreous humor, topical, 6746.51 μg/left eye, 24 h; 6746.51 μg/left eye periorbital skin; BLQ given 0; read-out: Drug Concentration in Tissue, Left vitreous humor
measuredAttribute: concentration at 24 h (ng/g)
One number for each entry, in ng/g.

Tell me measured concentration at 24 h for "CC/C=C\C/C=C\C/C=C\C/C=C\C/C=C\C/C=C\CCC(=O)O" please.
0

====

experiment: Biodistribution of Beta-Carotene after periorbital skin administration (Example 4); format: in vivo, cynomolgus monkeys; conditions: cynomolgus monkey, cornea, topical; 24 h; 505.99 μg/left eye periorbital skin; read-out: Drug Concentration in Tissue, Cornea
measuredAttribute: concentration at 24 h (ng/g)
Numbers only, in ng/g.

State, in one line, measured concentration at 24 h of CC1=C(/C=C/C(C)=C/C=C/C(C)=C/C=C/C=C(C)/C=C/C=C(C)/C=C/C2=C(C)CCCC2(C)C)C(C)(C)CCC1 [Beta-Carotene, β-Carotene]
0

====

Assay: Biodistribution of DHA after periorbital skin administration (Example 4)
Assay type: in vivo, cynomolgus monkeys
Conditions: cynomolgus monkey, left vitreous humor, topical, 6567.89 μg/left eye, 0.5 h; 6567.89 μg/left eye periorbital skin; BLQ given 0; read-out: Drug Concentration in Tissue, Left vitreous humor
Procedure: This is supported by results obtained with a markedly different compound docosahexaenoic acid (DHA), which are shown in Table 2. […] DHA concentrations in the samples were determined by the LC-MS/MS method. […] Substantial quantities of DHA (>10 μg/g) remained in the upper eyelid/periorbital region, retina, and cornea, at all tested time points of 0.5, 3, 6 and 24-hour post dosing. […]
measuredAttribute: concentration at 0.5 h (ng/g)
One number for each entry, in ng/g.

Specify measured concentration at 0.5 h for CC/C=C\C/C=C\C/C=C\C/C=C\C/C=C\C/C=C\CCC(=O)O [DHA, docosahexaenoic acid] .
0

====

experiment: Biodistribution of DHA after periorbital skin administration (Example 4); assay type: in vivo, cynomolgus monkeys; conditions: cynomolgus monkey, left retina, topical, 7017.66 μg/left eye, 6 h; 7017.66 μg/left eye periorbital skin; read-out: Drug Concentration in Tissue, Left retina
measuredAttribute: concentration at 6 h (ng/g)
Answers are plain numbers, in ng/g.

Write down concentration at 6 h measured for item "CC/C=C\C/C=C\C/C=C\C/C=C\C/C=C\C/C=C\CCC(=O)O"
78600

====

test: Biodistribution of Beta-Carotene after periorbital skin administration (Example 4); assay type: in vivo, cynomolgus monkeys; details: cynomolgus monkey, cornea, topical; 6 h; 526.32 μg/left eye periorbital skin; read-out: Drug Concentration in Tissue, Cornea
measuredAttribute: concentration at 6 h (ng/g)
Give bare numbers, in ng/g.

Tell me measured concentration at 6 h for CC1=C(/C=C/C(C)=C/C=C/C(C)=C/C=C/C=C(C)/C=C/C=C(C)/C=C/C2=C(C)CCCC2(C)C)C(C)(C)CCC1 [Beta-Carotene, β-Carotene] please.
0

====

assay: Biodistribution of DHA after periorbital skin administration (Example 4); type: in vivo, cynomolgus monkeys; conditions: cynomolgus monkey, left vitreous humor, topical, 6768.26 μg/left eye, 3 h; 6768.26 μg/left eye periorbital skin; BLQ given 0; read-out: Drug Concentration in Tissue, Left vitreous humor
measuredAttribute: concentration at 3 h (ng/g)
Numbers only, in ng/g.

Fill in concentration at 3 h for record "CC/C=C\C/C=C\C/C=C\C/C=C\C/C=C\C/C=C\CCC(=O)O"
0
